Quick reference for pIC50 among some compounds
tested on: HepG2; test: Antiproliferative activity against human HepG2 cells after 48 hrs by MTT assay; type: functional, cell-based; settings: HepG2, 48 h
pIC50: −log10 of the molar value.

Sample records with pIC50:
smiles=COC(C)(C)CCC[C@@](C)(O)[C@H]1CC[C@]2(C)[C@@H]1[C@H](O)C[C@@H]1[C@@]3(C)CC[C@H](OC(=O)/C=C/c4ccc(F)cc4)C(C)(C)[C@@H]3CC[C@]12C resulttype=pIC50 datavalue=4.57
smiles=COC(C)(C)CCC[C@@](C)(O)[C@H]1CC[C@]2(C)[C@@H]1[C@H](OC(=O)/C=C/c1ccc(Cl)cc1)C[C@@H]1[C@@]3(C)CC[C@H](OC(=O)/C=C/c4ccc(Cl)cc4)C(C)(C)[C@@H]3CC[C@]12C resulttype=pIC50 datavalue="< 4.30"

**Q:** Give the reported value of pIC50 for this record: COC(C)(C)CCC[C@@](C)(O)[C@H]1CC[C@]2(C)[C@@H]1[C@H](O)C[C@@H]1[C@@]3(C)CC[C@H](OC(=O)c4cccc(F)c4)C(C)(C)[C@@H]3CC[C@]12C
**A:** 4.99

**Q:** Report pIC50 for COC(C)(C)CCC[C@@](C)(O)[C@H]1CC[C@]2(C)[C@@H]1[C@H](OC(=O)c1cc([N+](=O)[O-])cc([N+](=O)[O-])c1)C[C@@H]1[C@@]3(C)CC[C@H](OC(=O)c4cc([N+](=O)[O-])cc([N+](=O)[O-])c4)C(C)(C)[C@@H]3CC[C@]12C
**A:** < 4.30

**Q:** Note pIC50 for the compound shown: COC(C)(C)CCC[C@@](C)(O)[C@H]1CC[C@]2(C)[C@@H]1[C@H](O)C[C@@H]1[C@@]3(C)CC[C@H](OC(=O)c4ccc(I)cc4)C(C)(C)[C@@H]3CC[C@]12C
**A:** < 4.30

**Q:** Item COC(C)(C)CCC[C@@](C)(O)[C@H]1CC[C@]2(C)[C@@H]1[C@H](OC(=O)c1ccc(Br)cc1)C[C@@H]1[C@@]3(C)CC[C@H](OC(=O)c4ccc(Br)cc4)C(C)(C)[C@@H]3CC[C@]12C : provide pIC50
**A:** < 4.30

**Q:** Supply measured pIC50 of COC(C)(C)CCC[C@@](C)(O)[C@H]1CC[C@]2(C)[C@@H]1[C@H](OC(=O)/C=C/c1ccccc1)C[C@@H]1[C@@]3(C)CC[C@H](OC(=O)/C=C/c4ccccc4)C(C)(C)[C@@H]3CC[C@]12C in your reply.
**A:** < 4.30

**Q:** Give pIC50 for COC(C)(C)CCC[C@@](C)(O)[C@H]1CC[C@]2(C)[C@@H]1[C@H](O)C[C@@H]1[C@@]3(C)CC[C@H](OC(=O)c4ccc([N+](=O)[O-])cc4)C(C)(C)[C@@H]3CC[C@]12C
**A:** 4.69

**Q:** Please give measured pIC50 of the following entry: COC(C)(C)CCC[C@@](C)(O)[C@H]1CC[C@]2(C)[C@@H]1[C@H](OC(=O)/C=C/c1ccc(F)cc1)C[C@@H]1[C@@]3(C)CC[C@H](O)C(C)(C)[C@@H]3CC[C@]12C
**A:** < 4.30

---

Below: a set of entries, each annotated with reported IC50.
tested on: PC-3; test: Antiproliferative activity against human PC3 cells after 48 hrs by MTT assay; assay type: functional, cell-based; conditions: PC-3, 48 h
Return type: number; implicit unit µM.

smiles=COC(C)(C)CCC[C@@](C)(O)[C@H]1CC[C@]2(C)[C@@H]1[C@H](O)C[C@@H]1[C@@]3(C)CC[C@H](OC(=O)c4ccc(Br)cc4)C(C)(C)[C@@H]3CC[C@]12C datavalue=35.7
smiles=COC(C)(C)CCC[C@@](C)(O)[C@H]1CC[C@]2(C)[C@@H]1[C@H](OC(=O)c1ccc(F)cc1F)C[C@@H]1[C@@]3(C)CC[C@H](OC(=O)c4ccc(F)cc4F)C(C)(C)[C@@H]3CC[C@]12C datavalue=43.2
smiles=O=c1[nH]cc(F)c(=O)[nH]1 datavalue=23.1

**Q:** Find the measured IC50 of COC(C)(C)CCC[C@@](C)(O)[C@H]1CC[C@]2(C)[C@@H]1[C@H](O)C[C@@H]1[C@@]3(C)CC[C@H](OC(=O)c4ccccc4Cl)C(C)(C)[C@@H]3CC[C@]12C and report it.
**A:** 22

---

system: PC-3; assay: Antiproliferative activity against human PC3 cells after 48 hrs by MTT assay; assay type: functional, cell-based; settings: PC-3, 48 h
resultType: pIC50
As a rule, pIC50 stands for the negative log10 of the concentration, concentration in M.

smiles=COC(C)(C)CCC[C@@](C)(O)[C@H]1CC[C@]2(C)[C@@H]1[C@H](O)C[C@@H]1[C@@]3(C)CC[C@H](OC(=O)/C=C/c4ccc(Cl)cc4)C(C)(C)[C@@H]3CC[C@]12C testedon=PC-3 datavalue=4.63

Please examine the following record next.
**Q:** Give the measured pIC50 for COC(C)(C)CCC[C@@](C)(O)[C@H]1CC[C@]2(C)[C@@H]1[C@H](O)C[C@@H]1[C@@]3(C)CC[C@H](OC(=O)c4cccc(F)c4)C(C)(C)[C@@H]3CC[C@]12C
**A:** 4.87

---

system: HepG2; assay: Antiproliferative activity against human HepG2 cells after 48 hrs by MTT assay; assay type: functional, cell-based; conditions: HepG2, 48 h
pIC50 reference
Scale explanation: pIC50 corresponds to minus log10 of a concentration expressed in moles per litre.

Past entries and their recorded results:
smiles=COC(C)(C)CCC[C@@](C)(O)[C@H]1CC[C@]2(C)[C@@H]1[C@H](O)C[C@@H]1[C@@]3(C)CC[C@H](OC(=O)c4ccccc4)C(C)(C)[C@@H]3CC[C@]12C testedon=HepG2 resulttype=pIC50 datavalue=4.75
smiles=COC(C)(C)CCC[C@@](C)(O)[C@H]1CC[C@]2(C)[C@@H]1[C@H](O)C[C@@H]1[C@@]3(C)CC[C@H](OC(=O)c4cc(I)ccc4Cl)C(C)(C)[C@@H]3CC[C@]12C testedon=HepG2 resulttype=pIC50 datavalue=4.54
smiles=COC(C)(C)CCC[C@@](C)(O)[C@H]1CC[C@]2(C)[C@@H]1[C@H](O)C[C@@H]1[C@@]3(C)CC[C@H](OC(=O)c4cc(F)ccc4Br)C(C)(C)[C@@H]3CC[C@]12C testedon=HepG2 resulttype=pIC50 datavalue=4.72
smiles=COC(C)(C)CCC[C@@](C)(O)[C@H]1CC[C@]2(C)[C@@H]1[C@H](O)C[C@@H]1[C@@]3(C)CC[C@H](OC(=O)c4cc([N+](=O)[O-])cc([N+](=O)[O-])c4)C(C)(C)[C@@H]3CC[C@]12C testedon=HepG2 resulttype=pIC50 datavalue=4.84
smiles=COC(C)(C)CCC[C@@](C)(O)[C@H]1CC[C@]2(C)[C@@H]1[C@H](O)C[C@@H]1[C@@]3(C)CC[C@H](O)C(C)(C)[C@@H]3CC[C@]12C testedon=HepG2 resulttype=pIC50 datavalue=4.44

Now for another entry.
**Q:** Please supply the value of reported pIC50 for the item COC(C)(C)CCC[C@@](C)(O)[C@H]1CC[C@]2(C)[C@@H]1[C@H](OC(=O)c1ccc(Cl)cc1)C[C@@H]1[C@@]3(C)CC[C@H](OC(=O)c4ccc(Cl)cc4)C(C)(C)[C@@H]3CC[C@]12C
**A:** 4.38

---

tested on: BGC-823; assay: Antiproliferative activity against human BGC823 cells after 48 hrs by MTT assay; format: functional, cell-based; settings: BGC-823, 48 h
Recorded pIC50 values for a group of compounds are listed next.
To interpret pIC50, take it as minus log10 of a concentration measured in moles per litre.

smiles=O=c1[nH]cc(F)c(=O)[nH]1 resulttype=pIC50 datavalue=4.61

Turning now to a further record.
**Q:** Supply reported pIC50 belonging to this compound: COC(C)(C)CCC[C@@](C)(O)[C@H]1CC[C@]2(C)[C@@H]1[C@H](O)C[C@@H]1[C@@]3(C)CC[C@H](OC(=O)c4ccc(F)cc4F)C(C)(C)[C@@H]3CC[C@]12C
**A:** 5.15

---

tested on: PC-3; assay: Antiproliferative activity against human PC3 cells after 48 hrs by MTT assay; format: functional, cell-based; settings: PC-3, 48 h
resultType: IC50 (µM)
I only need the number, in µM, no unit after it.

smiles=COC(C)(C)CCC[C@@](C)(O)[C@H]1CC[C@]2(C)[C@@H]1[C@H](O)C[C@@H]1[C@@]3(C)CC[C@H](O)C(C)(C)[C@@H]3CC[C@]12C datavalue=39.5

Field: next compound
**Q:** # return recorded IC50 for input COC(C)(C)CCC[C@@](C)(O)[C@H]1CC[C@]2(C)[C@@H]1[C@H](O)C[C@@H]1[C@@]3(C)CC[C@H](OC(=O)c4ccc([N+](=O)[O-])cc4)C(C)(C)[C@@H]3CC[C@]12C
**A:** 16.7
